System: human MAGL (His-hMAGL) (Homo sapiens, UniProt Q99685)
Construct: made in house; host or cells: Escherichia coli BL21(DE3)
Sequence (Q99685 1-303): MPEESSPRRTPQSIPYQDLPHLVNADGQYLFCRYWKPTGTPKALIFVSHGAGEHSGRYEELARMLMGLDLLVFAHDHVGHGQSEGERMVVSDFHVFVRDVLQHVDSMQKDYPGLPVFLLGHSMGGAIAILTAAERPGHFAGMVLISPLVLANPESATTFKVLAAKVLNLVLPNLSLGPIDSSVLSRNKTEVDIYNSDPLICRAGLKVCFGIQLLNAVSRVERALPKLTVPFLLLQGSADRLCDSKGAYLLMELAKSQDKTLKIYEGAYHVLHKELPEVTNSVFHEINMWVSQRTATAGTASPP
Test Method Notes: Measurement of MAGL inhibitory activity by absorbance
Type: biochemical
Assay Context: 10 μM test compound; substrate p-nitrophenyl acetate, absorbance at 405 nm
Test Readout: inhibition at 10 µM (%)

O=C(c1nccs1)N1CCN(C2CC(=O)N(c3ccc4c(ccn4-c4ccc(Cl)cn4)c3)C2)CC1 (centres unmarked) | 98
O=C(c1nccs1)N1CCN(C2CC(=O)N(c3ccc4c(ccn4-c4ccc(C(F)(F)F)cn4)c3)C2)CC1 (centres unmarked) | 98
O=C(c1nccs1)N1CCN(C2CC(=O)N(c3ccc4ccn(-c5ccc(F)cc5)c4c3)C2)CC1 (centres unmarked) | 93
O=C(c1nccs1)N1CCN(C2CC(=O)N(c3ccc(-c4ccc(Cl)cc4)cc3)C2)CC1 (centres unmarked) | 95
O=C(c1nccs1)N1CCN(C2CC(=O)N(c3cccc4ccccc34)C2)CC1 (centres unmarked) | 91
O=C(c1nccs1)N1CCN(C2CC(=O)N(c3ccc(Oc4ccccc4)cn3)C2)CC1 (centres unmarked) | 96
O=C(c1nccs1)N1CCN(C2CC(=O)N(c3cccc(-c4cccnc4)c3)C2)CC1 (centres unmarked) | 93
O=C(c1ccc(Cl)o1)N1CCN(C2CC(=O)N(c3ccc(Oc4ccccc4)cc3)C2)CC1 (centres unmarked) | 93
O=C(c1nccs1)N1CCN(C2CC(=O)N(c3ccc4c(ccn4-c4ncc(F)cn4)c3)C2)CC1 (centres unmarked) | 96
O=C(c1nccs1)N1CCN(C2CC(=O)N(c3cccc(-c4ccc(F)cc4)c3)C2)CC1 (centres unmarked) | 95
O=C(c1nccs1)N1CCN(C2CC(=O)N(c3cccc(Oc4ccc(F)cc4)c3)C2)CC1 (centres unmarked) | 95
O=C(c1nccs1)N1CCN(C2CC(=O)N(c3ccc4c(cnn4-c4ccc(F)cc4)c3)C2)CC1 (centres unmarked) | 99
O=C(c1cocn1)N1CCN(C2CC(=O)N(c3ccc(Oc4ccccc4)cc3)C2)CC1 (centres unmarked) | 95
COc1ccccc1Oc1ccc(N2CC(N3CCN(C(=O)c4nccs4)CC3)CC2=O)cc1 (centres unmarked) | 97
O=C(c1nccs1)N1CCN(C2CC(=O)N(c3ccc(Cc4ccccc4)cc3)C2)CC1 (centres unmarked) | 99
O=C(c1nccs1)N1CCN(C2CC(=O)N(c3ccc4cc(Br)ccc4c3)C2)CC1 (centres unmarked) | 90
O=C(c1nccs1)N1CCN(C2CC(=O)N(c3ccc(Oc4ccncc4)cc3)C2)CC1 (centres unmarked) | 91

###

System: human MAGL (His-hMAGL) (Homo sapiens, UniProt Q99685)
Construct: made in house; host or cells: Escherichia coli BL21(DE3)
Test Method Notes: Measurement of MAGL inhibitory activity by mass spectrometry
Assay type: biochemical
Assay Context: MAGL inhibitory rate, test compound 10 μM, His-hMAGL, substrate 2-arachidonylglycerol, RapidFire-mass spectrometry
Experimental: Thereafter, to each well was added 150 μM 2-arachidonylglycerol (Tocris Bioscience) by 5 μL, and the mixture was incubated at room temperature for 10 min. […] The amount of arachidonic acid in the obtained enzyme reaction mixture was calculated by measuring by RapidFire-mass spectrometry and correcting by the amount of arachidonic acid-d8. […] The peak area integration was analyzed using RapidFire integrator software version 3.6 (Agilent Technologies, Inc.). […]
Test Readout: inhibition at 10 µM (%)

CC1(C)C(=O)Nc2cccc(-c3cccc(N4CC(N5CCN(C(=O)c6nccs6)CC5)CC4=O)c3)c21 (stereo not shown) [Example 231] | 100
Cc1ccc(N2CC(N3CCN(C(=O)c4nccs4)CC3)CC2=O)cc1-c1ccccc1 (stereo not shown) [Example 248] | 103
Cc1ccc(-c2cccc(N3CC(N4CCN(C(=O)c5nccs5)CC4)CC3=O)c2)c(C)n1 (stereo not shown) [Example 368] | 97
O=C(c1nccs1)N1CCN(C2CC(=O)N(c3ccnc(-c4ccccc4)c3)C2)CC1 (stereo not shown) [Example 201] | 84
O=C(c1nccs1)N1CCN(C2CC(=O)N(c3ccc(-c4ccccc4)cc3)C2)CC1 (stereo not shown) [Example 213] | 100
O=C(c1nccs1)N1CCN([C@@H]2CC(=O)N(c3ccc4c(c3)CCN4c3cnc(C(F)(F)F)nc3)C2)CC1 [Example 391] | 90
O=C(c1nccs1)N1CCN(C2CC(=O)N(c3cccc(-c4c[nH]c5ncccc45)c3)C2)CC1 (stereo not shown) [Example 337] | 99
O=C(c1nccs1)N1CCN(C2CC(=O)N(c3sc4cc(F)ccc4c3Cl)C2)CC1 (stereo not shown) [Example 366] | 100
Cc1ncccc1-c1cc(F)cc(N2C[C@H](N3CCN(c4ncccn4)CC3)CC2=O)c1 [Example 426] | 99
O=C1Cc2c(-c3cccc(N4CC(N5CCN(C(=O)c6nccs6)CC5)CC4=O)c3)ccnc2N1 (stereo not shown) [Example 348] | 99
O=C(c1nccs1)N1CCN(C2CC(=O)N(c3ccc4c(c3)CCN4C(=O)C(F)(F)F)C2)CC1 (stereo not shown) [Example 373] | 96
O=C(c1nccs1)N1CCN([C@@H]2CC(=O)N(c3ccc4c(c3)CCN4c3ccnc(C(F)(F)F)n3)C2)CC1 [Example 388] | 99
Cc1cncc(-c2cccc(N3CC(N4CCN(C(=O)c5nccs5)CC4)CC3=O)c2)c1 (stereo not shown) [Example 206] | 98
COc1cc(C(F)(F)F)ccc1-c1cccc(N2CC(N3CCN(C(=O)c4nccs4)CC3)CC2=O)c1 (stereo not shown) [Example 310] | 98
Cc1cc(Cl)ccc1-c1cc(F)cc(N2CC(N3CCN(C(=O)c4nccs4)CC3)CC2=O)c1 (stereo not shown) [Example 357] | 101
O=C(c1nccs1)N1CCN(C2CC(=O)N(c3cccc(-c4cccc5ccsc45)c3)C2)CC1 (stereo not shown) [Example 313] | 101
